Overview of recorded MFI for various binders
- test system: T1, human CXCR4 (chemokine (C-X-C motif) receptor 4) (human, UniProt P61073 1-352)
- T1 construct: Endogenous on human tumour cell lines (Ramos, HPB-ALL, Raji, Jurkat, MM1.S, RPMI-8226, MOLP-8, MOLT-4) or transfected into CHO-K1 cells (DiscoveRx); also called CXCR4 receptor
- T1 sequence (P61073 whole entry): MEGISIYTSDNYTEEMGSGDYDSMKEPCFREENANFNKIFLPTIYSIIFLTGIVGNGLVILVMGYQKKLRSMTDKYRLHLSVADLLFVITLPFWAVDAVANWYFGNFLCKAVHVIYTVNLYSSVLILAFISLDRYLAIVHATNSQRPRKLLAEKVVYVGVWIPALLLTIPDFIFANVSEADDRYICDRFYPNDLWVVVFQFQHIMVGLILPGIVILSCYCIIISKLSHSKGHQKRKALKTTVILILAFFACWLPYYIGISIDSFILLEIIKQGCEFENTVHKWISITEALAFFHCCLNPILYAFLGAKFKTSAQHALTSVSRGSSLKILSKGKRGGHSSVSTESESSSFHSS
- assay overview: flow cytometry on HPB-ALL cells, Fab at 2.5 µg/ml

binder | MFI
h3G10.1.7 VH / h3G10.2.72 VL Fab (Fab, V domains shown, Tested as Fab) VH: EVQLVESGGGLVQPGGSLRLSCAASGFTFSDYYMSWVRQAPGKGLEWVGFIRHKANKYTTEYSTSVKGRFTISRDDSKNSLYLQMNSLKTEDTAVYYCARDLPGFAYWGQGTLVTVSS VL: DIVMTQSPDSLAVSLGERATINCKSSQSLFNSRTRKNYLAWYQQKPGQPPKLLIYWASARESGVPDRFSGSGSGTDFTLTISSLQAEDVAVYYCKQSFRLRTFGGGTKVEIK | 4120
h3G10.A57 VH / h3G10.2.25 VL Fab (Fab, V domains shown, Tested as Fab) VH: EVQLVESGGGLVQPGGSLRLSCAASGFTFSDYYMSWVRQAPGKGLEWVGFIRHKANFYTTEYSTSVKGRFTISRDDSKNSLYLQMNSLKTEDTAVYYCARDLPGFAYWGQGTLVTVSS VL: DIVMTQSPDSLAVSLGERATINCRSSQSLFNSRTRKNYLAWYQQKPGQPPKLLIYWASARESGVPDRFSGSGSGTDFTLTISSLQAEDVAVYYCKQSFRLRTFGGGTKVEIK | 5000
h3G10.A57 VH / h3G10.2.72 VL Fab (Fab, V domains shown, Tested as Fab) VH: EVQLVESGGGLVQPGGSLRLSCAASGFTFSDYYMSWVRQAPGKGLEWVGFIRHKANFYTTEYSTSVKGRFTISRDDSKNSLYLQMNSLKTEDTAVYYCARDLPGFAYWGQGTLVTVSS VL: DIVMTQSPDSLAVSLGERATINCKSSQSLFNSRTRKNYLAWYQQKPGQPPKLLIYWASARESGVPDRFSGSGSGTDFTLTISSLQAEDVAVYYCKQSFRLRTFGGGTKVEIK | 4330
h3G10.1.91 VH / h3G10.2.72 VL Fab (Fab, V domains shown, Tested as Fab) VH: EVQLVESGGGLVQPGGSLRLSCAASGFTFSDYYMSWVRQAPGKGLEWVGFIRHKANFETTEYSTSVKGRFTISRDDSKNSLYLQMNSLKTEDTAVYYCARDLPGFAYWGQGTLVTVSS VL: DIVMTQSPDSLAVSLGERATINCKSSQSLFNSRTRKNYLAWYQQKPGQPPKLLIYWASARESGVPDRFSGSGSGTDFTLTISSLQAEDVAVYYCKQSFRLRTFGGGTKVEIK | 7020
h3G10.2.37 VH / h3G10.2.72 VL Fab (Fab, V domains shown, Tested as Fab) VH: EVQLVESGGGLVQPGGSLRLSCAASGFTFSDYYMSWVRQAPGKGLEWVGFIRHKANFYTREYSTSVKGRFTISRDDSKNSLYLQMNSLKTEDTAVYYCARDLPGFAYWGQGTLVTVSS VL: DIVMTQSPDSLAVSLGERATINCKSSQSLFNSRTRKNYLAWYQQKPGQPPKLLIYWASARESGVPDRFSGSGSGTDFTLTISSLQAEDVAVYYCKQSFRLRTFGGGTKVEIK | 6240
